Values from patent US20260151494A1

- MEASUREMENT TARGET: T1, human CD71 extracellular domain (human, UniProt P02786 89-760)
- T1 construct: also called hCD71; CD71-ECD
- T1 sequence (P02786 89-760): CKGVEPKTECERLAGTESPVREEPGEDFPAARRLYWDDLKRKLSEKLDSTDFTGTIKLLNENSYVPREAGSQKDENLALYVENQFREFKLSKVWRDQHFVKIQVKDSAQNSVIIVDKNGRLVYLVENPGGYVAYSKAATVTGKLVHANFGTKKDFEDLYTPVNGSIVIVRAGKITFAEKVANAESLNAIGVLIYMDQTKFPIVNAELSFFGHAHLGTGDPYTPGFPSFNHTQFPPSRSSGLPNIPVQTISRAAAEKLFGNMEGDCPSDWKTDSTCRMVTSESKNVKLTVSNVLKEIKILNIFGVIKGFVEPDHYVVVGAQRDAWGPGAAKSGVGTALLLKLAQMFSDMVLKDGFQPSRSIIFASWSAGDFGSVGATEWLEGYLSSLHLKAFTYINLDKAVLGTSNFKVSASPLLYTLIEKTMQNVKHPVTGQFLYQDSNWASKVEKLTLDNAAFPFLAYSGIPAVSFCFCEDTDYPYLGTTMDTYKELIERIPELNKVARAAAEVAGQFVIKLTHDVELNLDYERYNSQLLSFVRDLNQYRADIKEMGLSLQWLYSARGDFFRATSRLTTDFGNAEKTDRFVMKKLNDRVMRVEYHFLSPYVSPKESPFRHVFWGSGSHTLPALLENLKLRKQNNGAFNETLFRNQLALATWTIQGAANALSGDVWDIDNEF
- ASSAY REMARKS: primary ELISA; signal over HSA control
Record form. Attribute: hCD71:HSA. Fill in for each entry.
Numbers only, in ratio.

Hi, could you look up hCD71:HSA for each item in my list?
1. CD71-binding FN3 domain SEQ ID NO 347 (designed binder) MLPAPKNLVVSRVTEDSARLSWTAPDAAFDSFFIGYLEPQPPGEAIGLFVPGSERSYDLTGLKPGTEYNVTIQGVKGGFPSEPLKAAFTT
2. CD71-binding FN3 domain SEQ ID NO 404 (designed binder) MLPAPKNLVVSRVTEDSARLSWTAPDAAFDSFFIGYLEPQPPGEAIHLLVPGSERSYDLTGLKPGTEYNVTIQGVKGGFPSEPLLAIVTT
3. CD71-binding FN3 domain SEQ ID NO 379 (designed binder) MLPAPKNLVVSRVTEDSARLSWTAPDAAFDSFYIEYWEGYRSGEAIVLTVPGSERSYDLTGLKPGTEYRVHIWGVKGGAVSYPLSAIFTT
4. CD71-binding FN3 domain SEQ ID NO 389 (designed binder) MLPAPKNLVVSRVTEDSARLSWTAPDAAFDSFFIGYLEPQPPGEAIHLLVPGSERSYDLTGLKPGTEYNVTIQGVKGGFPSMPLSAIVTT

1: 116; 2: 122; 3: 65; 4: 121

Hi, could you look up hCD71:HSA for each item in my list?
1. CD71-binding FN3 domain SEQ ID NO 360 (designed binder) MLPAPKNLVVSRVTEDSARLSWTAPDAAFDSFFIGYLEPQPPGEAISLYVPGSERSYDLTGLKPGTEYNVTIQGVKGGFPSHPLLAVFTT
2. CD71-binding FN3 domain SEQ ID NO 401 (designed binder) MLPAPKNLVVSRVTEDSARLSWTAPDAAFDSFFIGYLEPQPPGEAIALWVPGSERSYDLTGLKPGTEYNITIQGVKGGFPSMPLVANFTT
3. CD71-binding FN3 domain SEQ ID NO 429 (designed binder) MLPAPKNLVVSRVTEDSARLSWTAPDAAFDSFEIGYFERSFYGEAIILFVPGSERSYDLTGLKPGTEYAVWIGGVKGGVWSRPLSAIFTT
4. CD71-binding FN3 domain SEQ ID NO 441 (designed binder) MLPAPKNLVVSRVTEDSARLSWTAPDAAFDSFFIGYLEPQPPGEAILLWVPGSERSYDLTGLKPGTEYNVTIQGVKGGFPSDPLIANFTT

[155, 41, 124, 32]

Hi, could you look up hCD71:HSA for each item in my list?
1. CD71-binding FN3 domain SEQ ID NO 382 (designed binder) MLPAPKNLVVSRVTEDSARLSWTAPDAAFDSFFIGYLEPQPPGEAIELYVPGSERSYDLTGLKPGTEYNVTIQGVKGGFPSDPLEADFTT
2. CD71-binding FN3 domain SEQ ID NO 430 (designed binder) MLPAPKNLVVSRVTEDSARLSWTAPDAAFDSFFIGYLEPQPPGEAIDLWVPGSERSYDLTGLKPGTEYNVTIQGVKGGFPSYPLSASFTT
3. CD71-binding FN3 domain SEQ ID NO 445 (designed binder) MLPAPKNLVVSRVTEDSARLSWTAPDAAFDSFFIGYLEPQPPGEAIHLFVPGSERSYDLTGLKPGTEYNVTIQGVKGGFPSDPLVASFTT

[160, 126, 76]

What value of measured hCD71:HSA is listed for CD71-binding FN3 domain SEQ ID NO 435 (designed binder) MLPAPKNLVVSRVTEDSARLSWTAPDAAFDSFFIGYLEPQPPGEAIALWVPGSERSYDLTGLKPGTEYNVTIQGVKGGFPSHPLAAVFTT ?
210
